quantity.measured: melting point

// input: 5 compounds below; output: melting point for each
1. CS(=O)(=O)CCCCC(c1cscn1)S(=O)(=O)c1ccc(Cl)cc1 (stereo not drawn) [Example 112]
2. CS(=O)(=O)CCCCC(c1nccs1)S(=O)(=O)c1ccc(Cl)cc1 (stereo not drawn) [Example 116]
3. Cl.O=S(=O)(c1ccc(Cl)cc1)C(c1cc(F)ccc1F)C1CCNCC1 (stereo not drawn)
4. O=S(=O)(c1ccc(Cl)cc1)C(Cc1ccco1)c1cc(F)ccc1F (stereo not drawn) [Example 296]
5. O=C(OCCC(c1cc(F)ccc1F)S(=O)(=O)c1ccc(Cl)cc1)N1CCOCC1 (stereo not drawn) [Example 211]

Outgoing:
1. 123 to 125 °C
2. 118 to 119 °C
3. 184 to 190 °C
4. 90 to 93 °C
5. 140 to 141 °C

---

quantity.measured: melting point

The cases that follow already have their melting point on record.
molecule: O=S(=O)(c1ccc(Cl)cc1)C1(c2cc(F)ccc2F)CC1
melting point: 177 to 179 °C
//
molecule: CN(C)C(=O)N1CCC(c2cc(F)ccc2F)(S(=O)(=O)c2ccc(Cl)cc2)CC1
melting point: 143 to 146 °C
//
molecule: CC(C)(C)OC(=O)CC(c1cc(F)ccc1F)S(=O)(=O)c1ccc(Cl)cc1 (centres unmarked)
melting point: 140.5 to 142 °C
//
molecule: C=CCOc1cccnc1C(c1cc(F)ccc1F)S(=O)(=O)c1ccc(Cl)cc1 (centres unmarked)
melting point: 119 to 120 °C

Now for the molecule whose melting point we want.
Incoming: Could you please provide reported melting point for CC(CCCO)C(c1cc(F)ccc1F)S(=O)(=O)c1ccc(Cl)cc1 (centres unmarked) [Example 40] ? Thanks!
Outgoing: 67 to 69 °C

---

quantity.measured: melting point

The cases that follow already have their melting point on record.
compound: O=S(=O)(c1ccc(Cl)cc1)C(c1cccnc1)c1cc(F)ccc1F (stereo not drawn) [Example 141]
melting point: 130 to 131 °C
--
compound: O=S(=O)(c1ccc(Cl)cc1)C1(c2cc(F)ccc2F)CCCCC1 [Example 33]
melting point: 137 to 139 °C
--
compound: O=S(=O)(c1ccc(Cl)cc1)C1(c2cccnc2Cl)CCCCCC1 [Example 108]
melting point: 168 to 169 °C

// input: 3 compounds below; output: melting point for each
1. CC(CCNS(C)(=O)=O)C(c1cc(F)ccc1F)S(=O)(=O)c1ccc(Cl)cc1 (stereo not drawn) [Example 244]
2. O=S(=O)(c1ccc(Cl)cc1)C(c1cc(F)ccc1F)c1ccncc1Cl (stereo not drawn) [Example 343]
3. O=S(=O)(c1ccc(Cl)cc1)C(Cc1cccs1)c1cc(F)ccc1F (stereo not drawn) [Example 295]

Outgoing:
1. 163 °C
2. 160 to 161 °C
3. 127 to 130 °C

---

Provide the recorded melting point for the entries that follow.

compound: O=S(=O)(c1ccc(Cl)cc1)C1(c2cc(F)ccc2F)Cc2ccccc2C1 [Example 278]
quantity.measured: melting point
observed.measurement: 209 to 210 °C (dec.)

compound: CC(C)CCCC(c1cc(F)ccc1F)S(=O)(=O)c1ccc(Cl)cc1 (centres unmarked) [Example 325]
quantity.measured: melting point
observed.measurement: 79 to 80 °C

compound: O=C(OCCC(c1cc(F)ccc1F)S(=O)(=O)c1ccc(Cl)cc1)N1CCN(c2ccccc2)CC1 (centres unmarked) [Example 212]
quantity.measured: melting point
observed.measurement: 127 to 129 °C

compound: O=S(=O)(c1ccc(Cl)cc1)C(CCCCF)c1cc(F)ccc1F (centres unmarked) [Example 231]
quantity.measured: melting point
observed.measurement: 77 to 78 °C

compound: O=S(=O)(c1ccc(Cl)cc1)C1(c2cc(F)ccc2F)CCCC1 [Example 30]
quantity.measured: melting point
observed.measurement: 153 to 155 °C

// input: 4 compounds below; output: melting point for each
1. O=S(=O)(c1ccc(Cl)cc1)C(CC[S+]([O-])CCO)c1cc(F)ccc1F (centres unmarked) [Example 254]
2. O=S(=O)(c1ccc(Cl)cc1)C1(c2cc(F)ccc2F)CC[S+]([O-])CC1 (centres unmarked) [Example 252]
3. COc1ccc(-n2ccnc2C(c2cc(F)ccc2F)S(=O)(=O)c2ccc(Cl)cc2)cc1 (centres unmarked) [Example 153]
4. CCOC(=O)NCCC(c1cc(F)ccc1F)S(=O)(=O)c1ccc(Cl)cc1 (centres unmarked) [Example 222]

Outgoing:
["124 to 132 °C", "173 to 182 °C", "150 to 151 °C", "121 to 122 °C"]

// input: 2 compounds below; output: melting point for each
1. CN1CCC(c2cc(F)ccc2F)(S(=O)(=O)c2ccc(Cl)cc2)CC1 [Example 261]
2. CS(=O)(=O)N1CCC(c2cc(F)ccc2F)(S(=O)(=O)c2ccc(Cl)cc2)CC1 [Example 269]

Outgoing:
["172 to 175 °C", "176 to 178 °C"]

// input: 4 compounds below; output: melting point for each
1. CS(=O)(=O)CCCCC(c1ccncc1)S(=O)(=O)c1ccc(Cl)cc1 (centres unmarked) [Example 74]
2. O=C(c1ccccc1)C(c1cc(F)ccc1F)S(=O)(=O)c1ccc(Cl)cc1 (centres unmarked) [Example 8]
3. O=S(=O)(c1ccc(Cl)cc1)C(CCCCc1ccccc1)c1cc(F)ccc1F (centres unmarked) [Example 313]
4. Cn1c(Cl)cnc1C(c1cc(F)ccc1F)S(=O)(=O)c1ccc(Cl)cc1 (centres unmarked) [Example 151]

Outgoing:
1: 181 to 182 °C; 2: 179.5 to 180 °C; 3: 88 to 90 °C; 4: 179 to 180 °C

// input: 8 compounds below; output: melting point for each
1. CS(=O)(=O)NCCCCC(c1cc(F)ccc1F)S(=O)(=O)c1ccc(Cl)cc1 (centres unmarked) [Example 242]
2. O=C(CCCCCC(c1cc(F)ccc1F)S(=O)(=O)c1ccc(Cl)cc1)N1CCCC1 (centres unmarked) [Example 206]
3. O=S(=O)(c1ccc(Cl)cc1)C(CCc1ccc(Br)cc1)c1cc(F)ccc1F (centres unmarked) [Example 311]
4. O=S(=O)(c1ccc(Cl)cc1)C(c1ccc(CN2CCCCC2)cn1)c1cc(F)ccc1F (centres unmarked) [Example 336]
5. O=S(=O)(c1ccc(Cl)cc1)C(c1ccncc1)C1CCOCC1 (centres unmarked) [Example 122]
6. CS(=O)(=O)CCCCC(c1cccc(F)c1)S(=O)(=O)c1ccc(Cl)cc1 (centres unmarked) [Example 54]
7. CC(C)(C)OC(=O)N1CCC(c2cc(F)ccc2F)(S(=O)(=O)c2ccc(Cl)cc2)CC1 [Example 259]
8. CSC(c1cc(F)ccc1F)S(=O)(=O)c1ccc(Cl)cc1 (centres unmarked) [Example 56]

Outgoing:
1. 106 to 107 °C
2. 106 °C
3. 122 to 124 °C
4. 113 to 114 °C
5. 208 to 209 °C
6. 116 to 117 °C
7. 101 to 106 °C
8. 128 to 129 °C

---

Provide the recorded melting point for the entries that follow.

The cases that follow already have their melting point on record.
compound: O=S(=O)(c1ccc(Cl)cc1)C(C/C=C\CO)c1cc(F)ccc1F (centres unmarked)
observed.measurement: 60 to 63 °C

compound: O=S1(=O)CCC(c2cc(F)ccc2F)(S(=O)(=O)c2ccc(Cl)cc2)CC1
observed.measurement: 204 to 206 °C

compound: O=S(=O)(c1ccc(Cl)cc1)C(CCO)c1cc(F)ccc1F (centres unmarked)
observed.measurement: 147 to 149 °C

compound: O=C1OCCN1CCCC(c1cc(F)ccc1F)S(=O)(=O)c1ccc(Cl)cc1 (centres unmarked)
observed.measurement: 156 to 159 °C

compound: O=C(CCCCC(c1cc(F)ccc1F)S(=O)(=O)c1ccc(Cl)cc1)N1CCCC1 (centres unmarked)
observed.measurement: 135 to 136 °C

// input: 3 compounds below; output: melting point for each
1. CC(CCCS(C)(=O)=O)C(c1cc(F)ccc1F)S(=O)(=O)c1ccc(Cl)cc1 (centres unmarked) [Example 47]
2. Cc1ccc(S(=O)(=O)NCC(=O)NCc2ccc(C(c3cc(F)ccc3F)S(=O)(=O)c3ccc(Cl)cc3)nc2)cc1 (centres unmarked)
3. CS(=O)(=O)NCCC(c1cc(F)ccc1F)S(=O)(=O)c1ccc(Cl)cc1 (centres unmarked)

Outgoing:
142 to 144 °C
217 to 218 °C
131 to 134 °C

---

Provide the recorded melting point for the entries that follow.

compound: CCNC(=O)N1CCC(c2cc(F)ccc2F)(S(=O)(=O)c2ccc(Cl)cc2)CC1
observed.measurement: 172 to 174 °C
--
compound: O=C(O)CC(c1cc(F)ccc1F)S(=O)(=O)c1ccc(Cl)cc1 (stereo not drawn)
observed.measurement: 152 to 153 °C
--
compound: CN(C)S(=O)(=O)N1CCC(c2cc(F)ccc2F)(S(=O)(=O)c2ccc(Cl)cc2)CC1
observed.measurement: 125 to 129 °C
--
compound: O=C(O)CCCCCC(c1cc(F)ccc1F)S(=O)(=O)c1ccc(Cl)cc1 (stereo not drawn)
observed.measurement: 72 to 76 °C
--
compound: O=S(=O)(c1ccc(Cl)cc1)C1(c2cc(F)ccc2F)CCCCCC1
observed.measurement: 101 to 103 °C

// input: 4 compounds below; output: melting point for each
1. CSCCCCC(c1cc(F)ccc1F)S(=O)(=O)c1ccc(Cl)cc1 (stereo not drawn)
2. O=S(=O)(c1ccc(Cl)cc1)C(CCC1CCCCC1)c1cc(F)ccc1F (stereo not drawn)
3. O=S(=O)(c1ccc(Cl)cc1)C(c1cc(F)ccc1F)c1cc(N2CCOCC2)ncc1Cl (stereo not drawn)
4. CCC(C)CCC(c1cc(F)ccc1F)S(=O)(=O)c1ccc(Cl)cc1 (stereo not drawn)

Outgoing:
103 to 106 °C
82 to 83 °C
180 to 181 °C
56 to 58 °C
